For each record, write down the corresponding protein stability index.
B1: ZNF24 (parent)
chain: YGETCFPKGRFERKRNPSRKKQHI

Variants of: B1
Assay: protein stability index of a GFP-peptide fusion (GPS, HEK-293T) (PSI 1-6); higher = more stable;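 also: lentivirally expressed fusions sorted by FACS into six bins by GFP to DsRed ratio, PSI derived from sequencing read proportions per bin multiplied by bin number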
Details: c terminus: a fixed tail appended
Answer as a number with no unit attached.

Query: Look at this variant and give its reported protein stability index. G9P
Response: 2.41

Query: What does the data say about its protein stability index? Entry: E3G
Response: 2

Query: Query (variant): R19Q ; field requested: protein stability index
Response: 2.26

Query: Need protein stability index of P7C , thanks.
Response: 2.81

Query: Please give the measured protein stability index for this variant: H23P
Response: 3.1

Query: Which protein stability index value is on record for N16L ?
Response: 2.49

Query: So what does the record say about protein stability index for R13D ?
Response: 2.93

Query: # input variant: Q22D ; wanted: its protein stability index
Response: 2.9

Query: Reported protein stability index, variant E3T : ____
Response: 2.62

Query: // query protein stability index value for entry Q22N
Response: 2.94

Query: Report protein stability index for Q22S please.
Response: 3.4

Query: For the variant shown here, K8L , give the reported protein stability index.
Response: 2.07

Query: Requested read-out: protein stability index. Entry: K8N
Response: 1.93

Query: Fill in: protein stability index of P7E is ___
Response: 3.63

Query: # input variant: R10P ; wanted: its protein stability index
Response: 2.56

Query: Fill in the blank: the reported protein stability index of I24Q is ____.
Response: 3.08

Query: Name the recorded protein stability index for S18F .
Response: 2.71

Query: Field request: protein stability index | item: K20A
Response: 3.31

Query: Find the recorded protein stability index belonging to N16K and report it.
Response: 2.9

Query: Could you tell me which protein stability index is on file for R15V ?
Response: 2.83

Query: Quick one: protein stability index for C5T ?
Response: 2.47

Query: So what does the record say about protein stability index for R13M ?
Response: 2.15

Query: Which value of protein stability index has been reported for K14M in the records?
Response: 2.7

Query: Any idea what protein stability index was measured for T4S ?
Response: 3.43

Query: Return reported protein stability index; argument: F6M
Response: 4.07

Query: Reported protein stability index, variant K14V : ____
Response: 2.42

Query: Please give the measured protein stability index for this variant: R13H
Response: 3.21

Query: Give the measured protein stability index of H23A .
Response: 2.42

Query: Tell me the measured protein stability index of F11C , please.
Response: 2.58

Query: Would you mind telling me what protein stability index value was observed for E12L ?
Response: 3.59

Query: Fill blank: measured protein stability index of the variant E12I is ____.
Response: 2.34

Query: Form field: reported protein stability index of F6E
Response: 4.51

Query: // protein stability index lookup, key: I24G
Response: 2.64

Query: Give its protein stability index value. Item: G9I
Response: 1.94

Query: # query: protein stability index of entry N16M
Response: 2.71

Query: Record request: protein stability index value, item S18R
Response: 2.82

Query: Bench note: what protein stability index did C5A show?
Response: 3.17

Query: For the variant E12S , what protein stability index is on record?
Response: 2.85

Query: For the variant H23N , what protein stability index is on record?
Response: 2.85

Query: Returns the measured protein stability index for the input variant. Input: R19M
Response: 2.89

Query: protein stability index; subject: E3S
Response: 2.04

Query: What does the data say about its protein stability index? Entry: K14H
Response: 2.51

src = the supplement of paper PMC10567573
